// note: Ki values for Protein kinase C theta type (Homo sapiens) were reported in different studies

compound="OCC1CN(c2cccc(-c3n[nH]c4ncccc34)n2)CCN1 (stereo not shown)" target_or_system="Protein kinase C theta type (Homo sapiens)" value_kind=Ki reported_value="< 0.5 µM"
compound=NCCCCCCn1c(-c2c(Cl)cccc2Cl)nc2cnc(NCc3ccccc3F)nc21 target_or_system="Protein kinase C theta type (Homo sapiens)" value_kind=Ki reported_value="< 1 µM"
compound=C[C@](O)(c1ccccc1)[C@@H]1CN(c2ccc(F)c(-c3n[nH]c4ncccc34)n2)CCN1 target_or_system="Protein kinase C theta type (Homo sapiens)" value_kind=Ki reported_value="< 0.5 µM"
compound="NC1CCCCC1Nc1cccc(-c2n[nH]c3ncccc23)n1 (stereo not shown)" target_or_system="Protein kinase C theta type (Homo sapiens)" value_kind=Ki reported_value="< 0.5 µM"

**Q:** For Protein kinase C theta type (Homo sapiens), give the measured Ki of the entry CC(C)(O)C1CN(c2cccc(-c3n[nH]c4ncccc34)n2)CCN1 (stereo not shown)
**A:** < 0.05 µM

**Q:** For Protein kinase C theta type (Homo sapiens), give the measured Ki of the entry OC1([C@@H]2CN(c3nc(-c4n[nH]c5ncccc45)c(F)cc3F)CCN2)CC1
**A:** < 0.001 µM
